- Measured target: T1, MotA K28E (bacteriophage T4, UniProt P22915 1-211, K28E)
- T1 sequence: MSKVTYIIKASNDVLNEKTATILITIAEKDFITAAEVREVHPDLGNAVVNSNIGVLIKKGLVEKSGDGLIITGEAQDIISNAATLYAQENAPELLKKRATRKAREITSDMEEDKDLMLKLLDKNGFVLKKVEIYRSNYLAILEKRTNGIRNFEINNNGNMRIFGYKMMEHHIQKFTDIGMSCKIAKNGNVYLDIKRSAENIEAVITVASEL
- Run description: EMSA
pKd: −log10 of the molar value.
Property: pKd

Q: Please list pKd recorded for the binder 21 bp MotA box DNA (dsDNA) DNA 1: GAATTATTTGCTTTAGATTAC DNA 2: GTAATCTAAAGCAAATAATTC
Result: ~6.30
